System: HOP-92 NSCLC
Assay: NCI tumour cell line growth inhibition, 48 h; in the data active = GI50 below about 0.43 µM; inactive = the rest
Classes used: active, inactive

| Molecule smiles | Label value |
| --- | --- |
| CNC(=O)c1cc(Oc2ccc3nc(NC(=O)Nc4cc(C(F)(F)F)cc(C(F)(F)F)c4)sc3c2)ccn1 | active |
| NCCCCCCCCCn1c2c(c3ccccc3c1=O)C(=O)c1ccccc1-2 | inactive |
| ClCc1ccc(-c2ccc(Cn3cnc4c(Cl)ncnc43)cc2)cc1 | inactive |
| CCCCCCn1c2c(c3c(O)cccc31)C(=O)c1ccccc1-2 | inactive |
| COc1ccc2c(c1)C(=O)c1c-2c(OCCN2CCCCC2)nc2ccc(OC)cc12 | inactive |

---

System: RXF 393 renal
Experiment: NCI tumour cell line growth inhibition, 48 h
TGI reference
Reported endpoint: TGI

| Molecule | Reported endpoint | Result |
| --- | --- | --- |
| COc1cc(/C=C2\CC3C4CCC5=CC(=O)CC[C@]5(C)C4CC[C@]3(C)C2=O)ccc1OCCN1CCCCC1 (stereo partly specified) | TGI | 10.4 µM |
| O=C(c1cccnc1)N1N=C(c2ccc3c(c2)OCO3)CC1(O)c1cc(F)c(Cl)cc1Cl (stereo unspecified) | TGI | 26.1 µM |
| c1ccc(N2N=NC3C4CC(C5c6ccccc6C45)C32)cc1 (stereo unspecified) | TGI | 44.1 µM |
| COC(=O)CC1NC(=O)C1C(C)(OC)OC (stereo unspecified) | TGI | > 100 µM |
| Cc1ccc(S(=O)(=O)NCCCSCCO)cc1 | TGI | > 100 µM |
| N#Cc1c(O)c(C=O)c(=O)n2c1[nH]c1ccccc12 | TGI | > 100 µM |
| O=c1[nH]c(-c2ccc([N+](=O)[O-])cc2)nc2ccc(Cl)cc12 | TGI | > 100 µM |
| Nc1nc(Cl)nc2c1ncn2C1OC(CO)C(O)C1O (stereo unspecified) | TGI | > 100 µM |
| CC(C)(/C=N/O)/[N+]([O-])=C/c1ccccc1 | TGI | > 100 µM |
| CS(=O)(=O)c1ccc(-c2cnc(NCc3ccco3)n3cnnc23)cc1 | TGI | > 100 µM |
| COc1cccc2c1C(=O)c1c(O)c3c(c(O)c1C2=O)CC(O)(C(C)=O)CC3O (stereo unspecified) | TGI | 18.5 µM |
| CCOP(=O)(OCC)C(C)(CC)/N=C(\N)NC#N (stereo unspecified) | TGI | > 100 µM |
| Cc1cc2c(C)nn(Cc3ccccc3Cl)c2c(C#N)c1C | TGI | > 100 µM |
| CSCC(COC(C)=O)(CSC)c1ccncc1 | TGI | > 100 µM |
| CN1CCN(Cn2nc(-c3cc(F)c(Cl)cc3Cl)oc2=S)CC1 | TGI | 93.8 µM |
| COC1/C=C/OC2(C)Oc3c(C)c(O)c4c(O)c(c(C=NOC(c5ccccc5)c5ccccc5)c(O)c4c3C2=O)NC(=O)/C(C)=C/C=C/C(C)C(O)C(C)C(O)C(C)C(OC(C)=O)C1C (stereo unspecified) | TGI | 1.74 µM |
| COc1cc([C@@H]2c3cc4c(cc3[C@@H](NC(=O)c3ccc(OC(C)=O)cc3)C3COC(=O)[C@@H]32)OCO4)cc(OC)c1O (stereo partly specified) | TGI | 36.3 µM |
| CCOC(=O)C(NC(=O)c1ccccc1)(Nc1ccc(S(=O)(=O)Nc2ccc(OC)nn2)cc1)C(F)(F)F (stereo unspecified) | TGI | > 100 µM |
| COc1ccc2c(c1)CC1N(C)CCC13CCCCC23 (stereo unspecified) | TGI | > 100 µM |
| N#CCN1CCCN(CC#N)CCN(CC#N)CCCN(CC#N)CC1 | TGI | > 100 µM |
| CCOC(=O)c1cc([N+](=O)[O-])cc([N+](=O)[O-])c1Sc1ncnc2nc[nH]c12 | TGI | 3.29 µM |
